tested on: Pseudomonas aeruginosa; assay: Antimicrobial activity against Pseudomonas aeruginosa relative to peptide Bac2A RLARIVVIRVAR sequence
result-type: Ratio IC50

The following substances have reported results that may help.
H-RWRRKWWWW-OH :: 0.39
H-KRWWWWWKR-OH :: 0.22
H-IRRRKWWWW-OH :: 0.21

[1] H-IRRRWWWIV-OH
[2] H-RHWKTWWKR-OH
[3] H-KRRRIWWWK-OH
Output the entries ranked by Ratio IC50 from maximum down to minimum. Thanks in advance for listing the labels in the requested order.
2, 3, 1

---

biological target: Angiotensin-converting enzyme (Homo sapiens); assay: Inhibition of ACE (unknown origin); set-up: unit not given here
Residues, ends and D or L forms follow the SMILES beside them.
result-type: logIC50

The following molecules have reported results that may help.
CC(C)C[C@H](N)C(=O)N[C@@H](CO)C(=O)N1CCC[C@H]1C(=O)O (H-Leu-Ser-Pro-OH) :: 0.23
N[C@@H](CO)C(=O)N[C@@H](Cc1ccc(O)cc1)C(=O)O (H-Ser-Tyr-OH) :: 1.82
NC(=O)C[C@H](N)C(=O)N[C@@H](Cc1ccccc1)C(=O)O (H-Asn-Phe-OH) :: 1.67

[A] N[C@@H](Cc1ccccc1)C(=O)N[C@@H](CCC(=O)O)C(=O)N1CCC[C@H]1C(=O)O (H-Phe-Glu-Pro-OH)
[B] CSCC[C@H](N)C(=O)N[C@@H](Cc1ccccc1)C(=O)O (H-Met-Phe-OH)
[C] CC(C)C[C@H](N)C(=O)N[C@@H](CCCN=C(N)N)C(=O)N1CCC[C@H]1C(=O)O (H-Leu-Arg-Pro-OH)
Exam item: list the entries in increasing order of logIC50. Thanks in advance for listing the labels in the requested order.
C, A, B

---

test system: Pseudomonas aeruginosa; assay: antimicrobial activity against Pseudomonas aeruginosa
result-type: pIC50

H-RHWKTWWKR-OH :: 6.02
H-RWRRKWWWW-OH :: 6.41
H-KKRWLWWWR-OH :: 6.52
H-RKWWRWWRW-OH :: 6.51
H-WHGVRWWKW-OH :: 5.6
H-RIKVIWWWR-OH :: 6.29
H-KRWWKWWRR-OH :: 6.89
H-KRKIWWWIR-OH :: 6.55
H-IRRRKWWWW-OH :: 6.68
H-KRWWWWWKR-OH :: 6.66
H-RKRLKWWIY-OH :: 6.74
H-TRKVWWWRW-OH :: 6.12
H-LRFILWWKR-OH :: 6.06
H-RRIWRWWWW-OH :: 6.17
H-IRRRWWWIV-OH :: 6.64
H-KWWKIWWKR-OH :: 6.7
H-KRRRIWWWK-OH :: 6.4
H-WKRWKWWKR-OH :: 6.6
H-WRWWKWWRR-OH :: 6.64

---

molecular target: Angiotensin-converting enzyme (Homo sapiens) (UniProt P12821); test: Inhibition of ACE (unknown origin); design: unit not given here
Sequence (P12821 whole entry): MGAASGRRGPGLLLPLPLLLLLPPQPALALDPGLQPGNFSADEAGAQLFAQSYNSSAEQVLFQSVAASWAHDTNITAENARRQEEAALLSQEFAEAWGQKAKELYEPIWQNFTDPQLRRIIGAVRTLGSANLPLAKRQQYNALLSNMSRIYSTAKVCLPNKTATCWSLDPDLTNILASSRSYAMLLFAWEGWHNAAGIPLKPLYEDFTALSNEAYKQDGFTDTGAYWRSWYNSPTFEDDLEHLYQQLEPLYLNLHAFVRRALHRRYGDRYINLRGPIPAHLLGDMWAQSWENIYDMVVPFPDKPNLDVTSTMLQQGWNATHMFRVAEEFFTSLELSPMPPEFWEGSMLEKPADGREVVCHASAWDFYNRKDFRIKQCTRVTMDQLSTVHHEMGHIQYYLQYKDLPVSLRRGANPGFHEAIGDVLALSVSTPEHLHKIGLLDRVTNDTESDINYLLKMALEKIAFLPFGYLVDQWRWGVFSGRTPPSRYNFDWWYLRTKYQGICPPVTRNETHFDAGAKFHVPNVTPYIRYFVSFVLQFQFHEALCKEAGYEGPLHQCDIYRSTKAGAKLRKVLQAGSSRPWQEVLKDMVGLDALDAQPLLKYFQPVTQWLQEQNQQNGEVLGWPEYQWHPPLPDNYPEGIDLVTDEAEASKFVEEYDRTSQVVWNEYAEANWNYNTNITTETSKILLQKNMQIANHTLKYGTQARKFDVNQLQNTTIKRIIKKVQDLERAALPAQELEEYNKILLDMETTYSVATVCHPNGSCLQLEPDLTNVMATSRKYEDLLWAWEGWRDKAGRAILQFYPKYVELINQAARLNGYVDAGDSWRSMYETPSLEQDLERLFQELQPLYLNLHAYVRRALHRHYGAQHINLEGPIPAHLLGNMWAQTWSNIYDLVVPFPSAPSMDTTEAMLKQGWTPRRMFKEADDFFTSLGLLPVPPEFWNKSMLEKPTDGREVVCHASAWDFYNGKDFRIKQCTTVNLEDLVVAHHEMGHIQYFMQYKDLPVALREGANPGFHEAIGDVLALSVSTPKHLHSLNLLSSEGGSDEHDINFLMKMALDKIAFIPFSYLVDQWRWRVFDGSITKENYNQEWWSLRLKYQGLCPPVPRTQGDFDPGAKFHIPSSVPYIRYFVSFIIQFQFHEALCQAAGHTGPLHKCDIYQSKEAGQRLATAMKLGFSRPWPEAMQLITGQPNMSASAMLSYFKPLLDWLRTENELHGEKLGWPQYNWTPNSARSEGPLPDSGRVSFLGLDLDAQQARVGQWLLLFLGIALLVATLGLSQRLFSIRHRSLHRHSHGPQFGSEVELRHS
result-type: logIC50

H-VIEKYP-OH :: 2.24
H-RPQIPP-OH :: 1.66
H-PVVVPP-OH :: 2.07
H-DYGLYP-OH :: 1.79

---

test system: Pseudomonas aeruginosa; assay: Antimicrobial activity against Pseudomonas aeruginosa relative to peptide Bac2A RLARIVVIRVAR sequence
result-type: Ratio IC50

The following substances have reported results that may help.
H-RIKVIWWWR-OH :: 0.51
H-WKRWKWWKR-OH :: 0.25
H-KRKIWWWIR-OH :: 0.28

[a] H-RIKRWWWWR-OH
[b] H-LRFILWWKR-OH
Decide: a or b , by lowest recorded Ratio IC50. # reply format: chosen label
a

[A] H-KRWWKWWRR-OH
[B] H-TRKVWWWRW-OH
[C] H-KWWKIWWKR-OH
Output the entries ranked by Ratio IC50 from maximum down to minimum. Thanks in advance for listing the labels in the requested order.
B, C, A

[P] H-RKWWRWWRW-OH
[Q] H-RKRLKWWIY-OH
[R] H-RRIWRWWWW-OH
[S] H-RWILWWWRI-OH
[T] H-WHGVRWWKW-OH
Output the entries ranked by Ratio IC50 from maximum down to minimum. Thanks in advance for listing the labels in the requested order.
S, T, R, P, Q
